Molecular target: T1, full-length trimeric SARS-CoV-2 Spike protein (Spike-H6) (SARS-CoV-2, N-glycosylated (22 N-glycosylation sites))
T1 construct: also called trimeric Spike; full-length Spike-H6
Assay: ELISA screen
Listed next: entries and their corresponding Mean normalized OD.

binder	Mean normalized OD [OD]
Ly75_6 CRD-mouse IgG2a-Fc fusion protein (Fc fusion) FQNKCFLKVNSGPVTFSQASGICHSYGGTLPSVLSRGEQDFIISLLPEMEASLWIGLRWTAYERINRWTDNRELTYSNFHPLLVGRRLSIPTNFFDDESHFHCALILNLKKSPLTGTWNFTSCSERHSLSLCQKGGGSGGGSGGGS	0.007
Clec3b CRD-mouse IgG2a-Fc fusion protein (Fc fusion) VNLKCLLAFTQPKTFHEASEDCISQGGTLGTPQSELENEALFEYARHSVGNDANIWLGLNDMAAEGAWVDMTGGLLAYKNWETEITTQPDGGKAENCAALSGAANGKWFDKRCRDQLPYICQGGGSGGGSGGGS	0.001
Pkd1l3 CRD-mouse IgG2a-Fc fusion protein (Fc fusion) GGNSCYQLNRLFCDFQEADNYCHAQRGRLAHTWNPKLRGFLKSFLNEETVWWVRGNLTLPGSHPGINQTGGDDVLRNQKPGECPSVVTHSNAVFSRWNLCIEKHHFICQGGGSGGGSGGGS	0.046
Clec18a CRD-mouse IgG2a-Fc fusion protein (Fc fusion) IDGDCFMVSPEADTYYGAKMKCQGKGGVLAQIESQKVQDILAFYLGRLETTNEVTDSDFETKNFWIGLTYKAAKDSFRWTTGEHQSFTSFAFGQPDNQGFGNCVEMQASAAFNWNDQRCKTRNRYICQGGGSGGGSGGGS	0.022
Colec10 CRD-mouse IgG2a-Fc fusion protein (Fc fusion) TEEKFYYIVQEEKNYRESLTHCRIRGGMLAMPKDEVVNTLIADYVAKSGFFRVFIGVNDLEREGQYVFTDNTPLQNYSNWKEEEPSDPSGHEDCVEMLSSGRWNDTECHLTMYFVCEGGGSGGGSGGGS	0.036
Klrb1a CRD-mouse IgG2a-Fc fusion protein (Fc fusion) ECPQDWLSHRDKCFHVSHVSNTWEEGLVDCDGKGATLMLIQDQEELRFLLDSIKEKYNSFWIGLRYTLPDMNWKWINGSTLNSDVLKITDDTENDSCAAISGDKVTFESCNSDNRWICQKGGGSGGGSGGGS	0
Mrc1_3 CRD-mouse IgG2a-Fc fusion protein (Fc fusion) HGFYCYLIGSTLSTFTDANHTCTNEKAYLTTVEDRYEQAFLTSLVGLRPEKYFWTGLSDVQNKGTFRWTVDEQVQFTHWNADMPGRKAGCVAMKTGVAGGLWDVLSCEEKAKFVCKGGGSGGGSGGGS	0.037
